Source listed as paper PMC4873422.

tested on: Pa03C cells; test: Monolayer proliferation assay; format: cell-based, human; settings: tumor cells (Pa03C), 72 h
Quantity measured: IC50 (µM)

{"Substance smiles": "CN(CC(=O)N(Cc1ccc(C2CCCCC2)cc1)c1ccc(C(=O)O)c(O)c1)S(=O)(=O)c1c(F)c(F)c(F)c(F)c1F", "Unit of measurement": "µM", "Result value": 19.1}
{"Substance smiles": "CN(CC(=O)N(Cc1ccc(C2CCCCC2)cc1)c1ccc(C(=O)O)cc1)S(=O)(=O)c1c(F)c(F)c(F)c(F)c1F", "Unit of measurement": "µM", "Result value": 9.2}
